Collected abundance fitness values appear next to each entry.
B1: Histidine--tRNA ligase, cytoplasmic, residues 8 to 45; numbered along this chain, P12081 (parent)
chain: EELVKLQGERVRGLKQQKASAELIEEEVAKLLKLKAQL

- Variants of: B1
- method.notes: abundance fitness (aPCA) (normalised: wild type 0, dead -1); higher = more abundant; growth selection in yeast, the domain comes from the species named
- condition.details: Homo sapiens
Answer field: number only, no words.

May I ask what abundance fitness has been recorded for `L31D` ?
0.222

Another: `L34Q`
0.061

Another: `K30H`
-0.247

Another: `Q17D`
-0.11

Another: `L31M`
-0.338

Another: `G13D`
0.079

Another: `E1C`
-1.18

Another: `Q7P`
-0.595

Another: `E9T`
-0.246

Another: `Q16H`
-0.134

***
May I ask what abundance fitness has been recorded for `Q16M` ?
0.028

Another: `V11K`
-0.255

Another: `L38I`
-0.389

Another: `E26A`
0.263

Another: `L3M`
0.156

Another: `E25N`
0.055

Another: `L3G`
-0.45

Another: `R10V`
0.039

Another: `Q7G`
-0.619

Another: `K35S`
0.611

Another: `K30N`
-0.119

Another: `Q7D`
-0.492

Another: `V11L`
-0.189

Another: `Q16N`
0.076
